Parameter Kd: see the listing below.
Molecular target: T1, COVID-19 nucleocapsid protein (N-protein) (severe acute respiratory syndrome …, UniProt P0DTC9 1-419)
T1 construct: also called nucleocapsid protein (N-protein) of severe acute respiratory syndrome coronavirus 2 (SARS-CoV-2)
Experiment: bio-layer interferometry (BLI)
Report as a plain number; the unit nM is understood.

1) ACLAPGQRCQWGRTCA (Ci, Cii and Ciii cysteines covalently bound to TATA scaffold) [BCY17645]; 227
2) ACLEAGQRCQWQRECA (Ci, Cii and Ciii cysteines covalently bound to TATA scaffold) [BCY17650]; 1990
3) ACNTWCMDNDRIYFNCA (Ci, Cii and Ciii cysteines covalently bound to TBMT scaffold) [BCY16574]; 1030
4) HSLICVTDFCNNRYVVNRCA (Ci, Cii and Ciii cysteines covalently bound to TBMT scaffold) [BCY18986]; 10.6
5) ACSRGYCPRTNTFCA (Ci, Cii and Ciii cysteines covalently bound to TBMT scaffold) [BCY17637]; 1050
6) ACTKGYCPLTDMFCA (Ci, Cii and Ciii cysteines covalently bound to TBMT scaffold) [BCY17639]; 1240
7) ACHVDVCLITGVNIPCA (Ci, Cii and Ciii cysteines covalently bound to TATA scaffold) [BCY19567]; 2250
8) ACAWDEYYQVCLPCA (Ci, Cii and Ciii cysteines covalently bound to TATA scaffold) [BCY16580]; 6680

Note: attention shifts to another entry.
Entry ACLPLGARCQWQRECA (Ci, Cii and Ciii cysteines covalently bound to TATA scaffold) [BCY17648] has what Kd?
1860
